EXPERIMENT_SUMMARY: NCI Yeast Anticancer Drug Screen. Data for the cln2 rad14 strain (AID 165)
CONDITION_SUMMARY: S. cerevisiae cln2 rad14 strain, at 5.0 µM (retest, dose inferred, filed as 0.5)
About 79,000 compounds went through this panel and 15% of them were active in at least one assay; those are over-represented in the sample as a whole. The source made the active and inactive calls. Rule as the data show it: active = growth inhibition above about 70%; inactive = the rest.
Possible outcomes: True = active, False = inactive

| COMPOUND | ASSIGNED_CATEGORY |
| --- | --- |
| OCc1ccccc1CC(O)(c1ccccc1)c1ccccc1 | False |
| COc1ccccc1/C=C1\S/C(=N/Nc2nc(C)c(C(C)=O)s2)NC1=O | False |
| C1C2OC2C2C1C1CC2C2OC12 (stereo unspecified) | False |
| CC1=NC(C)=C(/C(C)=N/NC(=O)c2ccccc2O)C(C)/C1=C(/C)NNC(=O)c1ccccc1O (stereo unspecified) | False |
| CCCOc1ccc(-c2nc(-c3ccc(N=Cc4ccc(N(CCOS(C)(=O)=O)CCOS(C)(=O)=O)cc4C)cc3)cs2)cc1 | False |
| CCCCC(CCc1ccccc1)(C(=O)O)c1ccccc1 (stereo unspecified) | True |
| O=C(Nc1ccc(F)c([N+](=O)[O-])c1)NC(Cc1ccccc1)c1ccccc1 (stereo unspecified) | False |
| CCCCc1c2c(nc3c1CCc1cc4cc5c(nc4nc1-3)-c1nc3c(c(CCCC)c1CC5)CCC/C3=N/OC)/C(=N\OC)CCC2 | False |
| Nc1c(O)c(Cl)cc(Cl)c1Cl | False |
| O=C(c1cccc(Cl)c1)c1ccc2ccccc2c1C(=O)O | False |
| N#C/C(=C\c1c(Cl)cccc1Cl)c1nc2ccccc2[nH]1 | False |
| Cc1ccc(S(=O)(=O)NC(=O)CC2CCCCC2)cc1 | False |
| CC1CC(c2ccccc2)CC(C)N1c1ccc2ccccc2c1 (stereo unspecified) | False |
| COc1cc2c(ccc3cc4cccc[n+]4cc32)c(Br)c1OC | False |
| CC1CCC(C(C)C2C(O)CC3C4CC=C5CC(O)CCC5(C)C4CCC32C)NC1 (stereo unspecified) | False |
| Nc1ccc(S(=O)(=O)O)c2cccc(S(=O)(=O)O)c12 | False |
| CC(C)=Cc1cc2c(cc1O)CCC1C2CC[C@@]2(C)C1CC[C@@H]2O (stereo partly specified) | False |
| CN(C)CCC(=O)C(=Cc1cc(Cl)cc(Cl)c1)C(=O)CCN(C)C | False |
| Cc1cc2c(cc1C)[n+](=O)c(C(=O)C/C(=N/NC(=O)CC#N)C(=O)Nc1ccccc1C(F)(F)F)c(C)n2[O-] | False |
| ClCc1nnc2n1-c1ccc(Cl)cc1SC2 | False |
| COC1(OC)OC2=C(OC1(OC)OC)c1ccccc1C2=O | False |
